# targetEntity: UniProt Q06187
# test: biochemical
# studyConditions: read-out: BTK inhibition (%), 0.75 uM BTK, […] probe 3l, 15 min preincubation

>  <compound>
Nc1ccc(Oc2ccc(-c3ccc(Oc4ccc(N)cc4)cc3)cc2)cc1 [PCM-0216586]

>  <inhibition at 10 µM, %>
-7.7

$$$$
>  <compound>
CO/N=C(\C(=O)N[C@@H]1C(=O)N2C(C(=O)[O-])=C(C[n+]3cccc4c3CCC4)CS[C@H]12)c1csc(N)n1 [PCM-0214899]

>  <inhibition at 10 µM, %>
-4.7

$$$$
>  <compound>
COc1cccc(-c2cc(NCc3ccc4c(c3)OCO4)nc(N)n2)c1 [PCM-0215610]

>  <inhibition at 10 µM, %>
-7.7

$$$$
>  <compound>
Nc1nc(Nc2ccc(S(N)(=O)=O)cc2)nn1C(=O)c1c(F)cccc1F [PCM-0095002]

>  <inhibition at 10 µM, %>
84.1

$$$$

====

# targetEntity: BTK (Homo sapiens)
# Sequence (Q06187 402-655 limits assumed): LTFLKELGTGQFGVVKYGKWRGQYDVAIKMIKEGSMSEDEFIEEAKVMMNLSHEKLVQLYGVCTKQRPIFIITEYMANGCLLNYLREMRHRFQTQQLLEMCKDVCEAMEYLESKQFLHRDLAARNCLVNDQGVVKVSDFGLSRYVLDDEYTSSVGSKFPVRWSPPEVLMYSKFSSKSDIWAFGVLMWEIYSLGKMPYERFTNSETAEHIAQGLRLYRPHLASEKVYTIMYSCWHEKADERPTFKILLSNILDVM
# test: biochemical
# studyConditions: read-out: BTK inhibition (%), 0.75 uM BTK, […] probe 3l, 15 min preincubation

>  <compound>
CCN(CC)c1ccc2c(-c3ccccc3C(=O)O)c3ccc(=[N+](CC)CC)cc-3oc2c1

>  <measureUnit>
%

>  <inhibition at 10 µM>
85.7

$$$$
>  <compound>
CCOC(=O)[C@H](CCc1ccccc1)N[C@@H](C)C(=O)N(CC(=O)O)C1Cc2ccccc2C1

>  <measureUnit>
%

>  <inhibition at 10 µM>
-10

$$$$
>  <compound>
C=C[C@H]1CN2CC[C@@]3(C(=O)Nc4ccccc43)[C@@H]2C[C@@H]1/C(=C\OC)C(=O)OC

>  <measureUnit>
%

>  <inhibition at 10 µM>
-7.7

$$$$
>  <compound>
CCc1ccc(OCc2ccccc2C(=O)Nc2ccc3nc(C)cc(N)c3c2)cc1

>  <measureUnit>
%

>  <inhibition at 10 µM>
33.5

$$$$
>  <compound>
COc1ccc([C@@H]2Sc3ccccc3N(CCN(C)C)C(=O)[C@@H]2OC(C)=O)cc1

>  <measureUnit>
%

>  <inhibition at 10 µM>
17.1

$$$$
>  <compound>
O=C1Nc2ccc(I)cc2/C1=C/c1cc(Br)c(O)c(Br)c1

>  <measureUnit>
%

>  <inhibition at 10 µM>
52.4

$$$$
>  <compound>
CCOCCn1c(C2CCN(CCc3ccc(C(C)(C)C(=O)O)cc3)CC2)nc2ccccc21

>  <measureUnit>
%

>  <inhibition at 10 µM>
10.2

$$$$
>  <compound>
Cc1cnc(-c2cc(N3CCN(C(=O)CCS(C)(=O)=O)CC3)ncc2Cl)c(C)c1

>  <measureUnit>
%

>  <inhibition at 10 µM>
7.8

$$$$
>  <compound>
Cc1cn([C@H]2C[C@H](N=[N+]=[N-])[C@@H](CO)O2)c(=O)[nH]c1=O

>  <measureUnit>
%

>  <inhibition at 10 µM>
-3.1

$$$$
>  <compound>
CC(C)Oc1ccc2c(=O)c(-c3ccccc3)coc2c1

>  <measureUnit>
%

>  <inhibition at 10 µM>
17.9

$$$$
>  <compound>
CC(=O)Oc1cccc2ccccc12

>  <measureUnit>
%

>  <inhibition at 10 µM>
-21

$$$$
>  <compound>
CC(C)(CO)c1cc2cc(NC(=O)C3(c4ccc5c(c4)OC(F)(F)O5)CC3)c(F)cc2n1C[C@@H](O)CO

>  <measureUnit>
%

>  <inhibition at 10 µM>
-27.8

$$$$
>  <compound>
Cc1nccn1CCC(C(N)=O)(c1ccccc1)c1ccccc1

>  <measureUnit>
%

>  <inhibition at 10 µM>
1.5

$$$$
>  <compound>
N[C@@H](CSCCCO)C(=O)O

>  <measureUnit>
%

>  <inhibition at 10 µM>
17.9

$$$$
>  <compound>
CC1CCc2cc(F)cc3c(=O)c(C(=O)O)cn1c23 (stereo not drawn)

>  <measureUnit>
%

>  <inhibition at 10 µM>
-10.1

$$$$
>  <compound>
COC(=O)Nc1ccc(-c2nc(N3CCOCC3)c3cnn(C4CCN(C(=O)OC)CC4)c3n2)cc1

>  <measureUnit>
%

>  <inhibition at 10 µM>
18.6

$$$$
>  <compound>
C[C@H](NC(=O)Cc1cc(F)cc(F)c1)C(=O)N[C@@H]1C(=O)N(C)c2ccccc2-c2ccccc21

>  <measureUnit>
%

>  <inhibition at 10 µM>
4.8

$$$$
>  <compound>
CN(C)C(=O)Nc1cccc(-c2ccc(N(C)C)cc2)c1

>  <measureUnit>
%

>  <inhibition at 10 µM>
-3.1

$$$$
